- System: TK-10
- Measurement description: NCI tumour cell line growth inhibition, 48 h
Calls of active or inactive are those of the source. No stated cut-off is given here; in the data, active = GI50 up to about 1.1 µM and inactive = higher.

| Compound | GI50 |
| --- | --- |
| Fc1c(F)c(C(F)(F)F)c(F)c(F)c1N/N=C/c1cn(Cc2ccccc2)c2ccccc12 | 25.2 µM (inactive) |
| CCOP(=O)(OCC)OC1c2[nH]cc(C(=O)OCc3ccccc3)c2-c2cc(C(=O)OC)[nH]c2C1OC (centres undefined) | 4.91 µM (inactive) |
| Cc1cc(C)c(S(=O)(=O)N(CCCCCN)OCCCN)c(C)c1 | 17 µM (inactive) |
| C=Cc1c(C)c2cc3nc(c4c5[nH]c(cc6nc(cc1[nH]2)C(C)=C6CC)c(C)c5C(=O)C4C(=O)OC)C(CCC(=O)OC)C3C (centres undefined) | > 100 µM (inactive) |
| O=C(CCc1cccc(O)c1)NCCc1ccc(O)cc1 | > 100 µM (inactive) |
| CC1=CC2CCC1(C)C/C2=C(/C)OC=O (centres undefined) | > 100 µM (inactive) |
| CC(C)C(/C=C/c1ccc(Cl)cc1)=N\NC(=S)NN | 8.87 µM (inactive) |
| CC1(C)[C@@H]2C[C@H]1C(Cc1ccc(C[C@H]3c4cc(-c5ccccn5)ncc4[C@H]4C[C@@H]3C4(C)C)cc1)c1cc(-c3ccccn3)ncc12 (some centres undefined) | 0.841 µM (active) |
| C[n+]1c(-c2ccc(/C=N/NC(=O)C(=O)N/N=C/c3ccc(-c4cn5ccccc5[n+]4C)cc3)cc2)cn2ccccc21 | 56.6 µM (inactive) |
| O=C(/C=C/c1cc(F)ccc1F)OCCc1ccccc1 | > 100 µM (inactive) |
| O=C(CCCCCCCCCCc1ccccc1)C1=C(O)CC(O)CC1=O (centres undefined) | 64.6 µM (inactive) |
| COc1ccc(/C(C)=N/OC(=O)c2c(-c3ccccc3Cl)noc2C)cc1CN1CCOCC1 | 43.1 µM (inactive) |
| O=C1Nc2cc([N+](=O)[O-])c(Br)cc2C1=O | > 100 µM (inactive) |
| CN(CCCNC(=O)c1cn(C)c2c1ccc1cc(Cl)ccc12)CCCNC(=O)c1cn(C)c2c1ccc1cc(Cl)ccc12 | 2.47 µM (inactive) |
| O=C(Cc1ccccc1)NNc1nc(NNC(=O)c2ccncc2)nc(Nc2cccc(Cl)c2)n1 | > 10 µM (inactive) |
| CC(O)CC(=O)CO[C@H]1[C@H](O)[C@@H](O)[C@@H](O)[C@@H]2NC(=O)c3c(cc4c(c3O)OCO4)[C@H]21 (some centres undefined) | 0.0353 µM (active) |
| Cc1cccc(/C=C2\CCCCCC2=O)c1 | > 100 µM (inactive) |
| CC(Cn1c2c(c3cc(O)ccc31)CCc1ccc(O)cc1-2)N(C)C (centres undefined) | 18.7 µM (inactive) |
| CN(C)CCNC(=O)c1cccc2nc3c4ccccc4c4ccccc4c3nc12 | 5.38 µM (inactive) |

---

- Test system: SK-MEL-5
- Measurement description: NCI tumour cell line growth inhibition, 48 h
Calls of active or inactive are those of the source. Rule as the data show it: active = GI50 up to about 1.1 µM and inactive = higher.
Outcome codes: active, inactive

| Molecule | Class name |
| --- | --- |
| c1ccc2c(c1)ccn2CCc1c[nH]c2ccccc12 | inactive |
| Cc1ccc(C(=O)C(Cl)C(Cl)c2ccc(C)cc2)cc1 (stereo unspecified) | inactive |
| NC(=O)CN1C=CCC(C(N)=O)=C1 [CARICOTAMIDE] | inactive |
| CC(C)=CCN1CC(C)C(=O)Nc2cc(Cl)ccc21 (stereo unspecified) | inactive |
| O=[N+]([O-])c1ccc2[nH]nc(OCc3ccccc3Cl)c2c1 | inactive |
| O=C(O)c1ccccc1/C=N\N=C1NCCN1 | inactive |
| O=c1cc(NNc2ccc3ccccc3c2)[nH]c(=S)[nH]1 | inactive |
| CN(C)C(=O)Nc1cc2c3c(c1)CCCN3CCC2 | inactive |
| COC(=O)[C@@H]1C(=O)O[C@@H](c2ccc(OC)c(OC)c2OC)[C@@H]1C(=O)OC.COC(=O)[C@H]1C(=O)O[C@@H](c2ccc(OC)c(OC)c2OC)[C@@H]1C(=O)OC | inactive |
| COc1cc(/C=C/c2csnn2)cc(OC)c1OC | inactive |
| Cc1ccc2c(c1)C(=O)c1[nH]c3ccc(F)cc3c1CO2 | inactive |
| C[C@H](NC1=CC(=O)C(N[C@@H](C)[C@H](O)c2ccccc2)=CC1=O)[C@H](O)c1ccccc1 | inactive |
| Cc1c2cc[n+](COC(=O)c3ccccc3)cc2c(C)c2c1[nH]c1ccccc12 | inactive |
| CCCCn1c2c(n(CCCC)c1=[Se])-c1c(n(CCCC)c(=[Se])n1CCCC)S[Se][Se]S2 | inactive |
| CCOC(=O)c1cn2c(n1)sc1cc(OC)ccc12 | inactive |
| C[C@H]1CC[C@@]2(NC1)O[C@H]1C[C@H]3[C@@H]4CC[C@H]5C[C@@H](O)CC[C@]5(C)[C@H]4CC[C@]3(C)[C@H]1[C@@H]2C | inactive |
| CCCCCCCCCCCCC1NC(=N)NC2(CCCO2)C1C(=O)OC (stereo unspecified) | inactive |
| CCOC(=O)c1c(SCCN2CCCCC2)n(-c2ccccc2)c(=S)n(-c2ccccc2)c1=O | inactive |
| CN(C)CCNC(=O)c1cccc2nc3c4ccccc4c4ccccc4c3nc12 | inactive |
| NS(=O)(=O)c1nnc(NS(=O)(=O)c2ccc(Cl)cc2)s1 | inactive |
| COc1cc(C2c3cc4c(cc3OC(NNC(N)=O)C2C)OCO4)cc(OC)c1O (stereo unspecified) | active |
| O=c1[nH]c(=O)n(COCCO)cc1-c1ccccc1 | inactive |
| O=C1CC2Sc3ccccc3N=C2N1c1ccc(Cl)cc1Cl (stereo unspecified) | inactive |
| COC(=O)C(/C(=N/NC(N)=O)C(=O)Nc1ccc(C)cc1)c1nc2ccc([N+](=O)[O-])cc2nc1O (stereo unspecified) | inactive |
| CCn1c(-c2c(Cl)cc(O)cc2Cl)cc2c(Cl)cc(O)cc21 | inactive |
| COc1cccc2c1C(=O)c1c(O)c3c(c(O)c1C2=O)C[C@@](O)(C(=O)CO)CC3OC1CC(N)C(OC2CCCCO2)C(C)O1 (stereo partly specified) | active |
| O=C(c1cccnc1)N1N=C(c2ccccc2)CC1(O)c1cc(F)c(Cl)cc1Cl (stereo unspecified) | inactive |
| C=C(C=O)CCCC(C)[C@@H]1CCC23CC12CCC1[C@@]2(C)CCC(OC(C)=O)C(C)(C)C2CC(OC2OC(COC(C)=O)C(O)C(O)C2O)[C@]13C (stereo partly specified) | inactive |
| O=P(O)(CCP(=O)(O)c1ccccc1)c1ccccc1 | inactive |
| Cc1cccc(/C=C2\CCCCCC2=O)c1 | inactive |
| O=C(Cc1ccccc1)N/N=C1\C(=O)Nc2ccccc21 | inactive |
| CC1=C(c2ccccc2)CON(c2ccccc2)C1 | inactive |
| COc1cccc(-c2cc(O)c3cc(N)ccc3n2)c1 | inactive |
| Cc1ccc(S(=O)(=O)OCCn2cnc3nc(NC(=O)c4ccccc4)[nH]c(=O)c32)cc1 | inactive |
| COc1ccc(/N=N/C(=O)NC(CC(C)C)C(=O)NC(C)C(=O)O)cc1 (stereo unspecified) | inactive |
| CCOC(=O)CC(=O)C(=O)NN=C1NCCN1 | inactive |
| CN(C)CCNC(=O)c1cc([N+](=O)[O-])cc2ccc(-c3ccccc3)nc12 | inactive |
| CCOC(=O)C1(C(=O)OCC)CC=C(C)CC12C(=O)Nc1ccccc12 (stereo unspecified) | inactive |
| COc1ccc(C2C3=C(Nc4ncnn42)c2ccccc2OC3c2ccccc2)cc1 (stereo unspecified) | inactive |
| O=C(/C=C/c1ccc(-c2ccccc2)cc1)NCc1ccc(C(=O)NCCc2ccccc2)cc1 | inactive |
| CC(C)(C)OC(=O)N1CC(C)(C)N2C(=O)C3(CCCO3)C12 (stereo unspecified) | inactive |

---

- Test system: UACC-257
- Measurement description: NCI tumour cell line growth inhibition, 48 h
Calls of active or inactive are those of the source. No stated cut-off is given here; in the data, active = GI50 up to about 1.1 µM and inactive = higher.
Catalogue of molecules with associated GI50
Parameter: GI50

| Molecule | Experimental system | Parameter | Value measured |
| --- | --- | --- | --- |
| COC1OC2COC(c3ccccc3)OC2C(O)C1Br (centres undefined) | UACC-257 | GI50 | > 100 µM (inactive) |
| N#C/C(=C\c1ccncc1)c1csc2ccccc12 | UACC-257 | GI50 | 23.7 µM (inactive) |
| O=C1c2ccccc2-c2nc(-c3cccc([N+](=O)[O-])c3)nnc21 | UACC-257 | GI50 | 3.24 µM (inactive) |
| O=C(ON=C1c2ccccc2C(Br)C(Br)c2ccccc21)c1cc([N+](=O)[O-])cc([N+](=O)[O-])c1 (centres undefined) | UACC-257 | GI50 | 18 µM (inactive) |
| COC(=O)[C@@H]1C=CCN1S(=O)(=O)c1ccc(C)cc1 | UACC-257 | GI50 | > 100 µM (inactive) |
| O=c1c2cc(S(=O)(=O)O)ccc2nc(COc2ccc(Oc3ccc(Cl)cc3Cl)cc2)n1C(=S)Nc1ccc(Cl)cc1 | UACC-257 | GI50 | 25.4 µM (inactive) |
| COc1cc(/C=C/c2csnn2)cc(OC)c1OC | UACC-257 | GI50 | > 100 µM (inactive) |
| CC1CCC(=O)C(C(=O)CC2CC(=O)N(C)C(=O)C2)C1 (centres undefined) | UACC-257 | GI50 | > 100 µM (inactive) |
| C1CCC(N=C2N(C3CCCCC3)C(=NC3CCCCC3)N2C2CCCCC2)CC1 | UACC-257 | GI50 | > 100 µM (inactive) |

Cited source: ChEMBL document CHEMBL1201862
